- Assayed Target: human PRMT8 (Homo sapiens, UniProt Q9NR22)
- Sequence (Q9NR22 whole entry): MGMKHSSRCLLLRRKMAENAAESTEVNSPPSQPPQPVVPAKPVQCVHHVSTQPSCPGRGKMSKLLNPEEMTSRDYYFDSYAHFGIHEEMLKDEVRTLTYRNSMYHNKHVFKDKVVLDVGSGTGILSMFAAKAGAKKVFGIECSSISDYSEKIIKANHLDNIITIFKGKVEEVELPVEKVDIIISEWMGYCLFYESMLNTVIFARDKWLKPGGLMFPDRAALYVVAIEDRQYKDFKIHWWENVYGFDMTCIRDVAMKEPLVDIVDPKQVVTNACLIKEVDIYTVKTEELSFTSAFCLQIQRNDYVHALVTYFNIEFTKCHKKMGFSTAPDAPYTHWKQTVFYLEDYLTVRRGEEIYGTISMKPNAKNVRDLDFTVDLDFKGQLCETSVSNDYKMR
- Assay Name: PRMT8 Biochemical Assay
- Condition Info: PRMT8 IC50 (uM), peptide substrate, 3H-SAM Flashplate assay
Readout Name: IC50 (µM)

[P] CNCCN(C)Cc1c[nH]nc1-c1ccc(OCCOc2ccc(C(F)(F)F)cc2)cc1
[Q] CNCCN(C)Cc1c[nH]nc1-c1ccc(OCCOc2ccc(Oc3ccccc3)cc2)cc1
Determine, for P and Q , which has the greater value of IC50. Bench note: the answer is the label of the chosen record.
P
(P: 0.0366 µM, Q: 0.0192 µM)

[I] COCCOc1cc(-c2n[nH]cc2CN(C)CCN)cc(C(F)F)c1
[II] CNCCN(C)Cc1c[nH]nc1-c1ccc(S(C)(=O)=O)cc1
Among I and II , whose measured IC50 is the smaller figure? Identify your pick by its label.
II

[a] CNCCN(C)Cc1c[nH]nc1-c1cc(OC2CCOCC2)cc(C(F)(F)F)c1
[b] CNCCN(C)Cc1c[nH]nc1-c1ccc(OCCOc2cccc(OCCC3CCOCC3)c2)cc1
Lab notebook, comparison: a versus b , higher IC50 goes to which? Returns: label corresponding to the selected item.
a

###

- Assayed Target: human PRMT6 (Homo sapiens, UniProt Q96LA8)
- Construct: Flag-PRMT6-His; made in house; host or cells: HEK 293F cells (BacMam baculovirus, pFastBacMam)
- Sequence (Q96LA8 with tags, fused parts or gaps): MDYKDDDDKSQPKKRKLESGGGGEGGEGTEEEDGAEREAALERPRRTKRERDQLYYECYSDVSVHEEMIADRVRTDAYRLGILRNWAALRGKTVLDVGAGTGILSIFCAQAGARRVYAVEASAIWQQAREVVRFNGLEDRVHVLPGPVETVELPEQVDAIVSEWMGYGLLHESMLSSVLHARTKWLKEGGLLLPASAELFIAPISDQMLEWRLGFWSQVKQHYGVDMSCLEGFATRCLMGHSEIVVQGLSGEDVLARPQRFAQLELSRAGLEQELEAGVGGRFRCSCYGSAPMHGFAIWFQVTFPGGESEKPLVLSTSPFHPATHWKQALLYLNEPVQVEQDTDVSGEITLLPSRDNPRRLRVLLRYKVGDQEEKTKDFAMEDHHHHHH
- Assay Name: PRMT6 Biochemical Assay
- Condition Info: PRMT6 IC50 (uM)
Readout Name: IC50 (µM)
The answer is to be given in µM; state only the numeric part.

Use the examples below as a reference point.
Compound	IC50 [µM]
CNCCN(C)Cc1c[nH]nc1-c1cc(OC)c(CC(C)C)c(OC)c1	0.824
CCOCC(C)(C)c1ccc(-c2n[nH]cc2CN(C)CCNC)cc1	0.0559

Entry `CNCCN(C)Cc1c[nH]nc1-c1ccc(OCCOC)nc1` , system human PRMT6 (Homo sapiens, UniProt Q96LA8): what IC50 was measured?
0.0886

Any idea what IC50 came out for `CNCCN(C)Cc1c[nH]nc1-c1ccc(CC(C)C)cc1` on human PRMT6 (Homo sapiens, UniProt Q96LA8)?
0.0169

###

- Assayed Target: human PRMT1 (Homo sapiens, UniProt Q99873)
- Construct: GST-tagged PRMT1; made in house; host or cells: High Five insect cells (baculovirus, pFastBac1)
- Sequence (Q99873 with tags, fused parts or gaps): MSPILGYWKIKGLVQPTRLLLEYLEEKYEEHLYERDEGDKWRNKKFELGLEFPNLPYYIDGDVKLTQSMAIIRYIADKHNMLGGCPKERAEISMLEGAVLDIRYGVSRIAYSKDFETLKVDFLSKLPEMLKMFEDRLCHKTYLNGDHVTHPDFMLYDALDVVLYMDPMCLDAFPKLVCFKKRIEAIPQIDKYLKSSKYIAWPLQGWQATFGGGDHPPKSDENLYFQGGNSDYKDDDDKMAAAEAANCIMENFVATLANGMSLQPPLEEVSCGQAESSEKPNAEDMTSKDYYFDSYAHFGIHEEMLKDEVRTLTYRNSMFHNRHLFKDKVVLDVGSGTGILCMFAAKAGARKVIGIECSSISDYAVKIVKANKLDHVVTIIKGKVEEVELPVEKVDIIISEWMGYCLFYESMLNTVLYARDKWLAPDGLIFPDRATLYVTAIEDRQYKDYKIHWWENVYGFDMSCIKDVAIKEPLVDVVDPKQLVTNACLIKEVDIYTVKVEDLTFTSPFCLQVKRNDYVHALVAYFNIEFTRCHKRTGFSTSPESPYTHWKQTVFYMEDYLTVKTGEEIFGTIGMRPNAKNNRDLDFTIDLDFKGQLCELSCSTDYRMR
- Assay Name: PRMT1 Biochemical Assay
- Condition Info: peptide substrate, 3H-SAM Flashplate assay; read-out: PRMT1 IC50
Readout Name: IC50 (nM)

Recorded results for 2 molecules are shown here.
Molecule	Recorded Result
CNCCN(C)Cc1cn[nH]c1-c1ccc(OC2CC(OCCC3CCOCC3)C2)cc1 (centres unmarked)	119
CNCCN(C)Cc1ccnn1C1CCC2(CCOCC2)CC1	12.2

[P] CNCCN(C)Cc1ccnn1-c1ccc(OCC2CC2)cc1
[Q] CCC(CO)Oc1cc(-c2n[nH]cc2CN(C)CCNC)cc(C(F)(F)F)c1 (centres unmarked)
[R] CNCCN(C)Cc1ccnn1-c1cc(OCCOC)cc(C(F)(F)F)c1
Put the items in order so that reported IC50 rises from first to last. Sort the labels as requested; that list is your answer.
P, Q, R

###

- Assayed Target: human PRMT8 (Homo sapiens, UniProt Q9NR22)
- Assay Name: PRMT8 Biochemical Assay
- Condition Info: PRMT8 IC50 (uM), peptide substrate, 3H-SAM Flashplate assay
Readout Name: IC50 (µM)

Compound	Result Units	IC50
CCC(CO)Oc1cc(-c2n[nH]cc2CN(C)CCNC)cc(C(F)(F)F)c1 (centres unmarked)	µM	0.201

[A] CNCCN(C)Cc1c[nH]nc1-c1ccc(OC(COc2ccccc2)COc2ccccc2)cc1
[B] CNCCN(C)Cc1c[nH]nc1-c1ccc(NC(C)c2ccncc2)nc1 (centres unmarked)
[C] CNCCN(C)Cc1c[nH]nc1-c1ccc(N(C)C2CCOCC2)nc1
[D] CNCCN(C)Cc1c[nH]nc1-c1ccc(OCCCS(C)(=O)=O)cc1
// ranking: key=IC50, reverse=True Give the order by naming the labels one after another as requested.
C, D, B, A
